- ASSAYED SYSTEM: Thioredoxin reductase 1, cytoplasmic (Homo sapiens, UniProt Q16881)
- Sequence (Q16881 whole entry): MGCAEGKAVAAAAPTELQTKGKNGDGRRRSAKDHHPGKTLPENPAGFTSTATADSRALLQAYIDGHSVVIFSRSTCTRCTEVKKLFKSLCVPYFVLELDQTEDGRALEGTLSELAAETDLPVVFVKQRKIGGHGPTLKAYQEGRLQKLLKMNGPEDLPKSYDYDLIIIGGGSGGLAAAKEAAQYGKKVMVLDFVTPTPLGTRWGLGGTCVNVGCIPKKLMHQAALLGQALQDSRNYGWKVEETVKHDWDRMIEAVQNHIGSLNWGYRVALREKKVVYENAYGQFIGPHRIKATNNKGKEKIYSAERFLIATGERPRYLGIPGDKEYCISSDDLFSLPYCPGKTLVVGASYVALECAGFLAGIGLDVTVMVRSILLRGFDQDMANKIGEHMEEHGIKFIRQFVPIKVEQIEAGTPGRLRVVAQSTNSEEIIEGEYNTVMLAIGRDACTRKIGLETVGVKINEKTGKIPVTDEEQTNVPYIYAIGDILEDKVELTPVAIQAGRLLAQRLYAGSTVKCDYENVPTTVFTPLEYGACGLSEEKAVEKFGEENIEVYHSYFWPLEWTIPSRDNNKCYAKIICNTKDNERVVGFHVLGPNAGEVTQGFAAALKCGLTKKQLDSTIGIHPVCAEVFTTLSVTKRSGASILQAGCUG
- PROTOCOL DESCRIPTION: Inhibition of TrxR1 in human HL60 cells incubated for 24 hrs by endpoint insulin reduction assay
- Type: cell-based
ENDPOINT NAME: IC50

Query string: Please give the measured IC50 for this compound: CC1=CC(=O)c2c(O)ccc(O)c2C1=O
Result string: 2.4 µM
